Assayed system: PD-1/PD-L1 interaction (Homo sapiens, UniProt Q9NZQ7)
Construct: expressed in transfected cells; host or cells: CHO cells (aAPC-PD-L1) co-cultured with Jurkat cells overexpressing PD-1 and an NFAT-luciferase reporter
Procedure summary: PD-1/PD-L1 NFAT reporter co-culture assay
Format: cell-based
Experimental context: Jurkat PD-1 NFAT-luciferase cells co-cultured with aAPC-PD-L1 CHO cells, 6 hrs at 37° C.; read-out: EC50 NFAT Luciferase
Metric: EC50 (µM)

Look over these answered cases.
| Compound | Metric | Test value |
| --- | --- | --- |
| Cc1c(COc2cc(OCc3cncc(C#N)c3)c(CN[C@@](C)(CO)C(=O)O)cc2Cl)cccc1-c1cccc(-c2ccc3c(c2)CCC3N(C)CCO)c1C (some centres unmarked) | EC50 | 0.389 |
| COc1nc(O[C@H]2CCc3c(-c4cccc(-c5cnc(CN6CC(CO)C6)c(OC)n5)c4Cl)cccc32)c(Cl)cc1CN1CC[C@H](C(=O)O)C1 | EC50 | 0.011 |
| CS(=O)(=O)c1cncc(COc2nc(OCc3cccc(-c4cccc(-c5ccc6c(c5)C[C@@H](N)C6)c4Cl)c3Cl)c(Br)cc2CNC[C@@H](O)CC(=O)O)c1 | EC50 | 0.109 |
| COc1nc(-c2cccc(-c3cccc4c3CC[C@@H]4Oc3nc(OC)c(CN4CC(C(=O)O)C4)cc3Cl)c2Cl)ccc1CN1CC2(CCC(=O)N2)C1 | EC50 | 0.025 |
| Cc1c(COc2cc(OCc3cncc(C#N)c3)c(CNC[C@@H](O)CC(=O)O)cc2Cl)cccc1-c1cccc(-c2nc3ccc(CNC[C@@H](O)CC(=O)O)cn3n2)c1C | EC50 | 0.065 |

(I) COc1nc(OCc2cccc(-c3cccc(COc4nc(OCc5cncc(C#N)c5)c(CNC[C@@H](O)CC(=O)O)cc4Br)c3C)c2C)c(Br)cc1CNC[C@@H](O)CC(=O)O
(II) COc1nc(OCc2cccc(-c3cccc(COc4nc(OC)c(CNC5(C#N)CCC5)cc4Cl)c3C)c2C)c(Cl)cc1CNC1(C#N)CCC1
(III) Cc1c(-c2ccc(OCCNC[C@@H](O)CC(=O)O)cc2)cccc1-c1cccc(-c2ccc(OCCNC[C@@H](O)CC(=O)O)cc2)c1C
Query: Hey, quick one: sort these by EC50, largest value first please. // respond by listing labels in the order requested
Result: III, II, I
(III: 5.27 µM, II: 0.962 µM, I: 0.181 µM)

(1) Cc1c(COc2nc(OCCc3cncnc3)c(CNC[C@@H](O)CC(=O)O)cc2Br)cccc1-c1cccc(COc2nc(OCCc3cncnc3)c(CNC[C@@H](O)CC(=O)O)cc2Br)c1C
(2) CC(=O)N1CC2(CN(Cc3cn(C)c4nc(-c5cccc(-c6cccc(-c7cnc8c(CN9CC%10(C9)CN(C(C)=O)C%10)cn(C)c8n7)c6Cl)c5Cl)cnc34)C2)C1
Query: Lab notebook, comparison: 1 versus 2 , higher EC50 goes to which? State your choice using its label.
Result: 1
(1: 0.193 µM, 2: 0.045 µM)

---

Assayed system: PD-1/PD-L1 interaction (Homo sapiens)
Construct: expressed in transfected cells; host or cells: CHO cells (aAPC-PD-L1) co-cultured with Jurkat cells overexpressing PD-1 and an NFAT-luciferase reporter
Procedure summary: PD-1/PD-L1 NFAT reporter co-culture assay
Type: cell-based
Experimental context: Jurkat PD-1 NFAT-luciferase cells co-cultured with aAPC-PD-L1 CHO cells, 6 hrs at 37° C.; read-out: EC50 NFAT Luciferase
Metric: EC50 (µM)

| Smiles input | Metric | Test value |
| --- | --- | --- |
| COc1cc(O[C@H]2CCc3c(-c4cccc(-c5ccc(CN6CC7(CCC(=O)N7)C6)c(OC)n5)c4Cl)cccc32)c(Cl)cc1CNC[C@@H]1CCC(=O)N1 | EC50 | 0.151 |
| COc1nc(-c2cccc(-c3cccc(COc4nc(OC)c(CNC[C@H]5CCC(=O)N5)cc4Cl)c3Cl)c2Cl)ccc1CN1CC2(CCC(=O)N2)C1 | EC50 | 0.289 |
| C=Cc1cc(CNC[C@@H](O)CC(=O)O)c(OC)nc1OCc1cccc(-c2cccc(COc3nc(OC)c(CNC[C@@H](O)CC(=O)O)cc3C=C)c2C)c1C | EC50 | 1.3 |
| COc1nc(-c2cccc(-c3cccc4c3CC[C@@H]4Oc3nc(OCc4cncc(C#N)c4)c(CN[C@@](C)(CO)C(=O)O)cc3Cl)c2Cl)ccc1CN1CC2(CCC(=O)N2)C1 | EC50 | 0.036 |
| Cc1c(COc2cc(OCc3cncc(C#N)c3)c(CNC[C@@H](O)CC(=O)O)cc2Cl)cccc1-c1cccc(-c2ccc(CN[C@H]3CCCNC3=O)cc2)c1C | EC50 | 0.129 |

(I) Cc1c(COc2cc(OCc3cccc(C#N)n3)c(CNC[C@@H](O)CC(=O)O)cc2Cl)cccc1-c1cccc(COc2cc(OCc3cccc(C#N)n3)c(CNC[C@@H](O)CC(=O)O)cc2Cl)c1C
(II) CS(=O)(=O)c1cncc(COc2nc(O[C@H]3CCc4c(-c5cccc(-c6ccc(OCCNCCO)cc6)c5Cl)cccc43)c(Cl)cc2CNC[C@@H](O)CC(=O)O)c1
Query: Between item I and item II , which reported EC50 is smaller? State your choice using its label.
Result: II

(a) Cc1c(COc2nc(OCc3cncs3)c(CNC[C@@H](O)CC(=O)O)cc2Br)cccc1-c1cccc(COc2nc(OCc3cncs3)c(CNC[C@@H](O)CC(=O)O)cc2Br)c1C
(b) Cc1c(COc2cc(OCc3cncc(C#N)c3)c(CN[C@@](C)(CO)C(=O)O)cc2Cl)cccc1-c1cccc(-c2ccc(CN3CC4(CCC(=O)N4)C3)cc2)c1C
Query: Between item a and item b , which reported EC50 is smaller? State your choice using its label.
Result: b
(b: 0.191 µM, a: 0.392 µM)

---

Assayed system: PD-1/PD-L1 interaction (Homo sapiens, UniProt Q9NZQ7)
Construct: expressed in transfected cells; host or cells: CHO cells (aAPC-PD-L1) co-cultured with Jurkat cells overexpressing PD-1 and an NFAT-luciferase reporter
Procedure summary: PD-1/PD-L1 NFAT reporter co-culture assay
Type: cell-based
Experimental context: Jurkat PD-1 NFAT-luciferase cells co-cultured with aAPC-PD-L1 CHO cells, 6 hrs at 37° C.; read-out: EC50 NFAT Luciferase
pEC50: −log10 of the molar value.
Metric: pEC50

| Smiles input | Test value |
| --- | --- |
| COc1nc(O[C@H]2CCc3c(-c4cccc(-c5ccc6c(c5)C[C@@H](N)C6)c4Cl)cccc32)ccc1CN[C@@](C)(CO)C(=O)O | 5.52 |

(1) COc1cc(-c2cccc(-c3cccc4c3CC[C@@H]4Oc3nc(OC)c(CNC[C@@H]4CCC(=O)N4)cc3Br)c2Cl)ccc1CNC[C@@H]1CCC(=O)N1
(2) COc1nc(O[C@H]2CCc3c(-c4cccc(-c5ccc(CNC[C@@H]6CCC(=O)N6)cc5)c4Cl)cccc32)c(Cl)cc1CN[C@H]1CCC[C@H]1O
Query: Between item 1 and item 2 , which reported pEC50 is smaller? State your choice using its label.
Result: 2

---

Assayed system: PD-L1 (Homo sapiens, UniProt Q9NZQ7)
Construct: determine if they can specifically dimerize the extracellular domains of PD-L1
Sequence (Q9NZQ7 19-238 limits assumed): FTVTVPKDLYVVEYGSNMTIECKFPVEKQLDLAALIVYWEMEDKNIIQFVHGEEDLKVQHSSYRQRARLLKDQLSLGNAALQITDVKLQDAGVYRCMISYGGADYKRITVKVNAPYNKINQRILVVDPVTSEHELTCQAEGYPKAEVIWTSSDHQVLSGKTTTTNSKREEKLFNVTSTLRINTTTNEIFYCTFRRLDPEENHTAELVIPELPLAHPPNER
Sequence (Q9NZQ7 19-238 limits assumed): as above
Procedure summary: PD-L1/PD-L1 dimerization biochemical protein-protein interaction assay (ALPHA)
Format: binding
Experimental context: compound-induced PD-L1 dimerization, head prints '1 nM' (0.5 nM His-tagged PD-L1 and 0.5 nM FLAG-tagged PD-L1), read-out: AC50 PDL1 Dimer Alpha 1 nM
Metric: AC50 (nM)

Look over these answered cases.
| Compound | Readout units | Test value |
| --- | --- | --- |
| COc1nc(O[C@H]2CCc3c(-c4cccc(-c5ccc6c(c5)C[C@@H](N)C6)c4Cl)cccc32)ccc1CNC[C@@H]1CCC(=O)N1 [Example 793] | nM | 187 |
| Cc1c(COc2cc(OCc3cncc(C#N)c3)c(CNC[C@@H](O)CC(=O)O)cc2Cl)cccc1-c1cccc(-c2ccc3c(CNC[C@@H](O)CC(=O)O)ccnc3c2)c1C [Example 569] | nM | 128 |
| COc1cc(O[C@H]2CCc3c(-c4cccc(-c5ccc(CN6CC7(CCC(=O)N7)C6)c(OC)n5)c4Cl)cccc32)c(Cl)cc1CNC[C@@H]1CCC(=O)N1 [Example 796] | nM | 228 |
| Cc1c(COc2cc(OCc3cncc(C#N)c3)c(CN[C@@](C)(CO)C(=O)O)cc2Cl)cccc1-c1cccc(-c2ccc(OCCNCCO)cc2)c1C [Example 311] | nM | 75.5 |
| COc1cc(-c2cccc(-c3cccc4c3CC[C@@H]4Oc3nc(OC)c(CNC[C@@H]4CCC(=O)N4)cc3Cl)c2Cl)nc(Cl)c1CNC[C@@H]1CCC(=O)N1 [Example 799] | nM | 150 |

(P) Cc1c(COc2cc(OCc3cncc(C#N)c3)c(CNC[C@@H](O)CC(=O)O)cc2Cl)cccc1-c1cccc(-c2nc3ccc(CNC[C@@H](O)CC(=O)O)cn3n2)c1C [Example 595]
(Q) COc1nc(-c2cccc(-c3cccc4c3CC[C@@H]4Oc3nc(OCc4cncc(C#N)c4)c(CNC[C@@H](O)CC(=O)O)cc3Cl)c2Cl)ccc1CN1CC2(CCC(=O)N2)C1 [Example 683]
(R) Cc1c(COc2cc(OCc3cncc(C#N)c3)c(CN3CC[C@@H](C(=O)O)C3)cc2Cl)cccc1-c1cccc(-c2ccc(OCCNCCO)cc2)c1C [Example 345]
(S) COc1nc(-c2cccc(-c3cccc4c3CC[C@@H]4Oc3nc(OC)c(CN4CC5(C(=O)O)CCC4CC5)cc3Cl)c2Cl)ccc1CNC[C@@H]1CCC(=O)N1 [Example 766]
Query: Please list these in order of increasing AC50. Thank you! // respond by listing labels in the order requested
Result: S, P, Q, R

(I) COc1nc(O[C@H]2CCc3c(-c4cccc(-c5cnc(CN6CC7(C6)CN(C(C)=O)C7)c(OC)n5)c4Cl)cccc32)c(Cl)cc1CN1CC[C@@H](C(=O)O)C1 [Example 767]
(II) Cc1c(COc2cc(OCc3cncc(C#N)c3)c(CNC[C@@H](O)CC(=O)O)cc2Cl)cccc1-c1cccc(-c2ccc3c(c2)c(C)nn3CCNC[C@@H](O)CC(=O)O)c1C [Example 347]
Query: Between item I and item II , which reported AC50 is smaller? State your choice using its label.
Result: I
(I: 75.7 nM, II: 125 nM)
